test: Terminal half life in Beagle dog at 2.5 mg/kg, im; assay type: ADME, organism-based, Canis lupus familiaris; design: dose 2.5 mg/kg, route intramuscular; details: in vivo, read-out: beta t1/2 (converted)
Readout: half-life (h)
Kindly provide the numeric value in h only, without the unit symbol.

Exercise: Need half-life of C[C@@H]1CN(c2c(F)c(F)c3c(=O)c(C(=O)O)cn(C4CC4)c3c2F)C[C@H](C)N1 [ORBIFLOXACIN] , thanks.
Solution: 3.95

----------
assay: AUC (0 to infinity) in Beagle dog at 2.5 mg/kg, iv; format: ADME, organism-based, Canis lupus familiaris; set-up: time infinity, dose 2.5 mg/kg, route intravenous; conditions: plasma
Readout: AUC(0-inf) (ng·h/mL)
Respond with the bare value in ng·h/mL.

Exercise: Please give the measured AUC(0-inf) for this compound: "C[C@@H]1CN(c2c(F)c(F)c3c(=O)c(C(=O)O)cn(C4CC4)c3c2F)C[C@H](C)N1"
Solution: 8210
